Tested on: OVCAR-5 ovarian
Assay: NCI tumour cell line growth inhibition, 48 h
OUTCOME MEASURE: TGI

Worked examples, 3 molecules total:
# MOLECULE, OUTCOME MEASURE, RESULT
rows = [
    ("Nc1cc(N2CCCC2)nc(=O)n1Cc1ccccc1", "TGI", "> 100 µM"),
    ("O=C1C2Cc3ccccc3CN2C(=O)N1CCN1CCCC1 (stereo not given)", "TGI", "> 100 µM"),
    ("COc1cc(/C=C2\\CCC(C)C3=C2NC(=S)NC3c2cc(OC)c(OC)c(OC)c2)cc(OC)c1OC (stereo not given)", "TGI", "> 100 µM"),
]

Field: TGI. Fill in for each record below.
1. CC(C)(C)NC(=O)[C@H]1C[C@H]2CCCC[C@H]2CN1C[C@@H](O)[C@H](Cc1ccccc1)NC(=O)[C@H](CC(N)=O)NC(=O)c1ccc2ccccc2n1
2. CCOC(=O)c1cc(/C=C/C(C)=C/C(=O)OC)n(C)c1C

Result:
["30.5 µM", "> 100 µM"]

Source listed as PubChem BioAssay (NCI).
